tested-system: HDAC6 enzyme (Homo sapiens, UniProt Q9UBN7)
Construct: prepared by transducing full length HDAC1 and HDAC6 genes into Sf-9 insect cells; GST; purchased SignalChem; host or cells: Sf-9 insect cells
Sequence (Q9UBN7 whole entry): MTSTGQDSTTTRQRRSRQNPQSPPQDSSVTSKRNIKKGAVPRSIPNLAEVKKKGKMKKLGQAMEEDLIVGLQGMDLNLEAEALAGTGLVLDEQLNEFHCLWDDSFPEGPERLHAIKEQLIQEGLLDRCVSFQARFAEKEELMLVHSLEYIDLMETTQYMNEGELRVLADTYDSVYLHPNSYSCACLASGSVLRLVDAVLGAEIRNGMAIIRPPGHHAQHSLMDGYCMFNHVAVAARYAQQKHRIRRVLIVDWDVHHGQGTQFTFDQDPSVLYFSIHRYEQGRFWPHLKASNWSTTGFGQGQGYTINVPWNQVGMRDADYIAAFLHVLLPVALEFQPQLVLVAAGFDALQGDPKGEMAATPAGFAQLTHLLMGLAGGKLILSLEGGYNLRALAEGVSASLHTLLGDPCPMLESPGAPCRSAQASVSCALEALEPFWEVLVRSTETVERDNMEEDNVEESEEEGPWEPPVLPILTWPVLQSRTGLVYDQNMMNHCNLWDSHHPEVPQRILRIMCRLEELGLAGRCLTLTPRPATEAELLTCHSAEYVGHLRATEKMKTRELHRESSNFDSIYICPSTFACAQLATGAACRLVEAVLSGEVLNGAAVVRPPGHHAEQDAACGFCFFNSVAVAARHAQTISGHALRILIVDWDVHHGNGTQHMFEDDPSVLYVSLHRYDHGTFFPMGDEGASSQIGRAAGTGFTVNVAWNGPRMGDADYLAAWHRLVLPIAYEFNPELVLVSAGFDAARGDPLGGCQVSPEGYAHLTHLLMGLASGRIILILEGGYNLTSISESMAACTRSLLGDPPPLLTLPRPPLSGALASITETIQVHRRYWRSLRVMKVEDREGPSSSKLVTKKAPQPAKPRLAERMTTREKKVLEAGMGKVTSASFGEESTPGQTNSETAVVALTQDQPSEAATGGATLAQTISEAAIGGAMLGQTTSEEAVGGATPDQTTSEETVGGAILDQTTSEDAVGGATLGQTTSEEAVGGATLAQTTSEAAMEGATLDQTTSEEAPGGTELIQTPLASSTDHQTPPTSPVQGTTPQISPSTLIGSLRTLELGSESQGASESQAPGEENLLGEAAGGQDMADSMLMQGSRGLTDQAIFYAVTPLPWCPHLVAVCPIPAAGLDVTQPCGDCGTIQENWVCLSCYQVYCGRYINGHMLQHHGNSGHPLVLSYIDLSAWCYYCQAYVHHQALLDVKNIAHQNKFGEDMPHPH
assay-explanation: HDAC6 enzyme inhibitory assay (HDAC-Glo I/II Assay kit)
Assay type: biochemical
measurement-setup: 1 μM test compound; read-out: HDAC6 inhibitory rate (%) (1 μM)
reported-endpoint: inhibition at 1 µM (%)

Example results:
[[record]]
molecule = "O=C(C[C@H]1COCCN1C(=O)c1ccccc1)Nc1ccc(-c2noc(C(F)(F)F)n2)cc1 [Example 160]"
reported_endpoint = "inhibition at 1 µM"
quantitative_result = 98

[[record]]
molecule = "O=C(NCC1COCCN1C(=O)C1CCCCC1)c1ccc(-c2noc(C(F)(F)F)n2)s1 (stereo not shown) [Example 254]"
reported_endpoint = "inhibition at 1 µM"
quantitative_result = 98


(A) Cc1nn(C)c(C)c1C(=O)N1CCOC[C@H]1CNC(=O)c1ccc(-c2noc(C(F)(F)F)n2)cc1 [Example 139]
(B) Cc1cc(C(=O)N2CCOCC2CNC(=O)c2ccc(-c3noc(C(F)(F)F)n3)s2)ccn1 (stereo not shown) [Example 227]
For the pair A and B , which entry has the numerically smaller recorded inhibition at 1 µM? # respond with the chosen item's label
A
(A: 63%, B: 91%)

###

tested-system: HDAC1 enzyme (Homo sapiens)
Construct: prepared by transducing full length HDAC1 and HDAC6 genes into Sf-9 insect cells; GST; purchased SignalChem; host or cells: Sf-9 insect cells
assay-explanation: HDAC1 enzyme inhibitory assay (HDAC-Glo I/II Assay kit)
Type: biochemical
measurement-setup: 1 μM test compound; read-out: HDAC1 inhibitory rate (%) (1 μM)
reported-endpoint: inhibition at 1 µM (%)

Example results:
[[record]]
compound = "O=C(NCC1COCCN1C(=O)C1(c2ccccc2)CC1)c1ccc(-c2noc(C(F)(F)F)n2)s1 (stereo not shown)"
quantitative_result = 18

[[record]]
compound = "O=C(NCC1COCCN1C(=O)C(F)(F)c1ccccc1)c1ccc(-c2noc(C(F)(F)F)n2)cc1 (stereo in doubt)"
quantitative_result = 40


(a) Cc1cc(C(=O)N2CCOC[C@@H]2CNC(=O)c2ccc(-c3noc(C(F)(F)F)n3)cc2)n(C)n1
(b) O=C(NC[C@H]1COCCN1C(=O)N1CCC[C@@H]1CO)c1ccc(-c2noc(C(F)(F)F)n2)cc1
For the pair a and b , which entry has the numerically smaller recorded inhibition at 1 µM? # respond with the chosen item's label
b
(b: 2%, a: 14%)

###

tested-system: HDAC6 enzyme (Homo sapiens, UniProt Q9UBN7)
Construct: prepared by transducing full length HDAC1 and HDAC6 genes into Sf-9 insect cells; GST; purchased SignalChem; host or cells: Sf-9 insect cells
assay-explanation: HDAC6 enzyme inhibitory assay (HDAC-Glo I/II Assay kit)
Type: biochemical
measurement-setup: 1 μM test compound; read-out: HDAC6 inhibitory rate (%) (1 μM)
reported-endpoint: inhibition at 1 µM (%)

[[record]]
compound = "O=C(NCC1COCCN1C(=O)Cc1cccs1)c1ccc(-c2noc(C(F)(F)F)n2)cc1 (centres unmarked) [Example 21]"
reported_endpoint = "inhibition at 1 µM"
quantitative_result = 97

[[record]]
compound = "O=C(NC[C@H]1COCCN1C(=O)Cc1cccs1)c1ccc(-c2noc(C(F)(F)F)n2)cn1 [Example 201]"
reported_endpoint = "inhibition at 1 µM"
quantitative_result = 95

[[record]]
compound = "Cn1nccc1C(=O)N1CCOC[C@H]1CNC(=O)c1ccc(-c2noc(C(F)(F)F)n2)cc1 [Example 154]"
reported_endpoint = "inhibition at 1 µM"
quantitative_result = 89

[[record]]
compound = "O=C(NCC1Cc2ccccc2CN1C(=O)c1cc(Cl)cc(Cl)c1)c1ccc(-c2noc(C(F)(F)F)n2)cc1 (centres unmarked) [Example 176]"
reported_endpoint = "inhibition at 1 µM"
quantitative_result = 82

[[record]]
compound = "Cc1csc(C(=O)N2CCOC[C@H]2CNC(=O)c2ccc(-c3noc(C(F)(F)F)n3)cc2)c1 [Example 145]"
reported_endpoint = "inhibition at 1 µM"
quantitative_result = 97

[[record]]
compound = "N#Cc1cccc(C(=O)N2CCOCC2CNC(=O)c2ccc(-c3noc(C(F)(F)F)n3)s2)c1 (centres unmarked) [Example 218]"
reported_endpoint = "inhibition at 1 µM"
quantitative_result = 91

[[record]]
compound = "O=C(NCC1COCCN1C(=O)C1CCOCC1)c1ccc(-c2noc(C(F)(F)F)n2)cc1 (centres unmarked) [Example 26]"
reported_endpoint = "inhibition at 1 µM"
quantitative_result = 95

[[record]]
compound = "Cn1nc(C(=O)N2CCOCC2CNC(=O)c2ccc(-c3noc(C(F)(F)F)n3)cc2)c2ccccc21 (centres unmarked) [Example 18]"
reported_endpoint = "inhibition at 1 µM"
quantitative_result = 98


###

tested-system: HDAC1 enzyme (Homo sapiens)
Construct: prepared by transducing full length HDAC1 and HDAC6 genes into Sf-9 insect cells; GST; purchased SignalChem; host or cells: Sf-9 insect cells
assay-explanation: HDAC1 enzyme inhibitory assay (HDAC-Glo I/II Assay kit)
Assay type: biochemical
measurement-setup: 1 μM test compound; read-out: HDAC1 inhibitory rate (%) (1 μM)
reported-endpoint: inhibition at 1 µM (%)

[[record]]
compound = "O=C(NCC1COCCN1C(=O)c1cc(F)c(F)c(F)c1)c1ccc(-c2noc(C(F)(F)F)n2)cc1 (stereo in doubt) [Example 119]"
quantitative_result = 11

[[record]]
compound = "O=C(NCC1COCCN1C(=O)C1CC1)c1ccc(-c2noc(C(F)(F)F)n2)cc1 (stereo not drawn) [Example 24]"
quantitative_result = 8

[[record]]
compound = "CC(C)(C(=O)N1CCOC[C@@H]1CNC(=O)c1ccc(-c2noc(C(F)(F)F)n2)s1)c1ccccc1 [Example 263]"
quantitative_result = 32

[[record]]
compound = "O=C(NC[C@H]1COCCN1C(=O)N1CC2C(C1)C2(F)F)c1ccc(-c2noc(C(F)(F)F)n2)cc1 (stereo partly drawn) [Example 309]"
quantitative_result = 4

[[record]]
compound = "N#C[C@@H]1CCCN1C(=O)N1CCOC[C@@H]1CNC(=O)c1ccc(-c2noc(C(F)(F)F)n2)cc1 [Example 285]"
quantitative_result = 3


(1) Cc1nc2ccccn2c1C(=O)N1CCOCC1CNC(=O)c1ccc(-c2noc(C(F)(F)F)n2)cc1 (stereo in doubt) [Example 92]
(2) COc1cccc(C(=O)N2CCOCC2CNC(=O)c2ccc(-c3noc(C(F)(F)F)n3)cc2)c1 (stereo not drawn) [Example 29]
Param pair: 1 , 2 . Output: the one whose inhibition at 1 µM is numerically greater. # respond with the chosen item's label
1
(1: 36%, 2: 19%)

###

tested-system: HDAC1 enzyme (Homo sapiens, UniProt Q13547)
Construct: prepared by transducing full length HDAC1 and HDAC6 genes into Sf-9 insect cells; GST; purchased SignalChem; host or cells: Sf-9 insect cells
Sequence (Q13547 whole entry): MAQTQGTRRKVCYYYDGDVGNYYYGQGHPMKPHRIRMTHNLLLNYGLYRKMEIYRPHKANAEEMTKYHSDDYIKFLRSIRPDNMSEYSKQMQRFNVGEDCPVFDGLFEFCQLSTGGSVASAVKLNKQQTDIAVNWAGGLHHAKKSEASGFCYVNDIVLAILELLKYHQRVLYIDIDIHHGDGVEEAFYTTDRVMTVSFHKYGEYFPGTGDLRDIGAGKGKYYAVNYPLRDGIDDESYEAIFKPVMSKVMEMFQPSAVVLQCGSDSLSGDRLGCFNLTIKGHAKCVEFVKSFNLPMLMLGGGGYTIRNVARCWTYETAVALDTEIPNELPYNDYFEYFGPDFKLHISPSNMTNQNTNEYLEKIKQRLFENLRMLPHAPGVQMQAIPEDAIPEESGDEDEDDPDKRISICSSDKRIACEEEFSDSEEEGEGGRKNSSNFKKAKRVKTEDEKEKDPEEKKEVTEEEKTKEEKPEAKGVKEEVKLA
assay-explanation: HDAC1 enzyme inhibitory assay (HDAC-Glo I/II Assay kit)
Type: biochemical
measurement-setup: 1 μM test compound; read-out: HDAC1 inhibitory rate (%) (1 μM)
reported-endpoint: inhibition at 1 µM (%)

Example results:
[[record]]
compound = "O=C(NCC1COCCN1C(=O)C1CCCCC1)c1ccc(-c2noc(C(F)(F)F)n2)cc1 (stereo not shown)"
tested_system = "HDAC1 enzyme (Homo sapiens, UniProt Q13547)"
quantitative_result = 20

[[record]]
compound = "CC(C)(C(=O)N1CCOCC1CNC(=O)c1ccc(-c2noc(C(F)(F)F)n2)s1)c1ccccc1 (stereo not shown)"
tested_system = "HDAC1 enzyme (Homo sapiens, UniProt Q13547)"
quantitative_result = 18

[[record]]
compound = "Cc1nc2sccn2c1C(=O)N1CCOC[C@@H]1CNC(=O)c1ccc(-c2noc(C(F)(F)F)n2)cc1"
tested_system = "HDAC1 enzyme (Homo sapiens, UniProt Q13547)"
quantitative_result = 42

[[record]]
compound = "O=C(NC[C@H]1COCCN1C(=O)N1CCC(CO)CC1)c1ccc(-c2noc(C(F)(F)F)n2)cc1"
tested_system = "HDAC1 enzyme (Homo sapiens, UniProt Q13547)"
quantitative_result = 6

[[record]]
compound = "CCc1noc(C)c1C(=O)N1CCOCC1CNC(=O)c1ccc(-c2noc(C(F)(F)F)n2)cc1 (stereo in doubt)"
tested_system = "HDAC1 enzyme (Homo sapiens, UniProt Q13547)"
quantitative_result = 50


(I) Cc1cc(C(=O)N2CCOC[C@H]2CNC(=O)c2ccc(-c3noc(C(F)(F)F)n3)cc2)on1
(II) O=C(NCC1COCCN1C(=O)C1(c2ccccc2)COC1)c1ccc(-c2noc(C(F)(F)F)n2)cc1 (stereo in doubt)
Param pair: I , II . Output: the one whose inhibition at 1 µM is numerically greater. # respond with the chosen item's label
II
(II: 35%, I: 11%)

###

tested-system: HDAC6 enzyme (Homo sapiens)
Construct: prepared by transducing full length HDAC1 and HDAC6 genes into Sf-9 insect cells; GST; purchased SignalChem; host or cells: Sf-9 insect cells
assay-explanation: HDAC6 enzyme inhibitory assay (HDAC-Glo I/II Assay kit)
Assay type: biochemical
measurement-setup: 1 μM test compound; read-out: HDAC6 inhibitory rate (%) (1 μM)
reported-endpoint: inhibition at 1 µM (%)

[[record]]
compound = "O=C(NCC1COCCN1C(=O)C1(c2ccccc2)CC1)c1ccc(-c2noc(C(F)(F)F)n2)s1 (stereo not drawn) [Example 248]"
measurement_units = "%"
quantitative_result = 97

[[record]]
compound = "N#Cc1cccc(C(=O)N2CCOCC2CNC(=O)c2ccc(-c3noc(C(F)(F)F)n3)cc2)c1 (stereo in doubt) [Example 116]"
measurement_units = "%"
quantitative_result = 91

[[record]]
compound = "Cc1cccc(C(=O)N2CCOCC2CNC(=O)c2ccc(-c3noc(C(F)(F)F)n3)cc2)c1 (stereo not drawn) [Example 10]"
measurement_units = "%"
quantitative_result = 104

[[record]]
compound = "Cc1ccc(C(=O)N2CCOC[C@H]2CNC(=O)c2ccc(-c3noc(C(F)(F)F)n3)cc2)s1 [Example 144]"
measurement_units = "%"
quantitative_result = 96

[[record]]
compound = "O=C(NC[C@H]1COCCN1C(=O)CCc1ccccc1)c1ccc(-c2noc(C(F)(F)F)n2)cn1 [Example 203]"
measurement_units = "%"
quantitative_result = 95

[[record]]
compound = "O=C(NCC1COCCN1C(=O)C1CCOCC1)c1ccc(-c2noc(C(F)(F)F)n2)s1 (stereo not drawn) [Example 255]"
measurement_units = "%"
quantitative_result = 93

[[record]]
compound = "Cc1ccccc1C(=O)N1CCOCC1CNC(=O)c1ccc(-c2noc(C(F)(F)F)n2)cc1 (stereo not drawn) [Example 9]"
measurement_units = "%"
quantitative_result = 99

[[record]]
compound = "O=C(NCC1COCCN1C(=O)c1ccccc1-c1ccccc1)c1ccc(-c2noc(C(F)(F)F)n2)s1 (stereo not drawn) [Example 221]"
measurement_units = "%"
quantitative_result = 91

[[record]]
compound = "Cc1ccsc1C(=O)N1CCOC[C@@H]1CNC(=O)c1ccc(-c2noc(C(F)(F)F)n2)cn1 [Example 198]"
measurement_units = "%"
quantitative_result = 99

[[record]]
compound = "O=C(NCC1COCCN1C(=O)C1CCc2ccccc2O1)c1ccc(-c2noc(C(F)(F)F)n2)cc1 (stereo not drawn) [Example 35]"
measurement_units = "%"
quantitative_result = 92

[[record]]
compound = "O=C(NC[C@H]1COCCN1C(=O)c1csnn1)c1ccc(-c2noc(C(F)(F)F)n2)cc1 [Example 70]"
measurement_units = "%"
quantitative_result = 95

[[record]]
compound = "N#C[C@H]1CCCN1C(=O)N1CCOC[C@@H]1CNC(=O)c1ccc(-c2noc(C(F)(F)F)n2)cc1 [Example 284]"
measurement_units = "%"
quantitative_result = 95

[[record]]
compound = "O=C(NC[C@@H]1COCCN1C(=O)c1cc2ncccn2n1)c1ccc(-c2noc(C(F)(F)F)n2)cc1 [Example 126]"
measurement_units = "%"
quantitative_result = 88

[[record]]
compound = "O=C(NC[C@@H]1COCCN1C(=O)c1csnn1)c1ccc(-c2noc(C(F)(F)F)n2)cc1 [Example 142]"
measurement_units = "%"
quantitative_result = 96

[[record]]
compound = "O=C(NCC1COCCN1C(=O)c1ccccc1N1CCOCC1)c1ccc(-c2noc(C(F)(F)F)n2)s1 (stereo not drawn) [Example 220]"
measurement_units = "%"
quantitative_result = 94

